test.system: Cin5 (UniProt P40917)
Sequence: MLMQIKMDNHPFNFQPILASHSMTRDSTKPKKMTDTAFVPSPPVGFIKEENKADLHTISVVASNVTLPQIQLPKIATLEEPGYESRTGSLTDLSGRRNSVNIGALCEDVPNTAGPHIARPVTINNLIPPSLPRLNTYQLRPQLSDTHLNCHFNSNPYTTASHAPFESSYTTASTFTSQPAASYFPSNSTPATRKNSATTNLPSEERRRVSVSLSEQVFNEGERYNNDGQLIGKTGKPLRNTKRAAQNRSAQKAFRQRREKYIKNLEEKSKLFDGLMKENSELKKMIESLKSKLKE
method.notes: PBM E-score (8-mer binding enrichment) (E-score (-0.5 to 0.5)); higher = stronger / more preferred TF binding
assay.context: protein concentration: 100 nM; construct: GST-full length
Over roughly 33,000 sequences, “E-score (-0.5 to 0.5)” has its median near -0.0059; the highest 2% begin near 0.26. Many of the other results were omitted from the sample, so the highest values are more common in it than they were.
measurement.type: PBM E-score
Answers are plain numbers.

Query string: Given `TATAGCCA` , state its recorded PBM E-score.
Result string: 0.111

Parameters: items (list). Returns: PBM E-score for each item.
1. CGGAGGAG
2. ACAAGACT
3. AATCTCCG
4. ATTTCTCG
5. TAACATGA
6. CCCCCCTC
7. CGAATTAC
8. ATTTTACG

Result string:
1. -0.182
2. -0.039
3. 0.0667
4. 0.313
5. 0.071
6. -0.465
7. 0.0723
8. 0.271

====

So I've got a bunch of sequences here, and I need their PBM E-score values.
test.system: Cin5 (UniProt P40917)
Sequence: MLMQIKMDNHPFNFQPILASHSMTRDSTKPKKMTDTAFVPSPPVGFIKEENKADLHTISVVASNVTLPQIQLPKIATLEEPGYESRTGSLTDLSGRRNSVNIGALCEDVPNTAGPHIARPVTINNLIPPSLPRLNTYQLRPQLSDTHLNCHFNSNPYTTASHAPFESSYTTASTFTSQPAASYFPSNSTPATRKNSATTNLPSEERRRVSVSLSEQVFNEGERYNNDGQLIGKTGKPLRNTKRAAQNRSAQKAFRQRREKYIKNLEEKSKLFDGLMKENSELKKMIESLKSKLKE
method.notes: PBM E-score (8-mer binding enrichment) (E-score (-0.5 to 0.5)); higher = stronger / more preferred TF binding
assay.context: protein concentration: 100 nM; construct: GST-full length
Over roughly 33,000 sequences, “E-score (-0.5 to 0.5)” has its median near -0.0059; the highest 2% begin near 0.26. Only a selection was taken, and the highest values are over-represented in it overall.
One number for each entry.

Here is how some sequences turned out for PBM E-score.
Query string: Given `AAGTATTA` , state its recorded PBM E-score.
Result string: 0.0531

Query string: Consider next the sequence `AGGAAAAG` in the same way.
Result string: 0.0753

Query string: Consider next the sequence `ACCATTCA` in the same way.
Result string: 0.0437

Parameters: items (list). Returns: PBM E-score for each item.
1. CCCTGCAA
2. AGACAGAG
3. GGCCAGAC
4. GCATTCGC
5. TACGCCCA
6. AGGAATAG
7. CTTATGAA

Result string:
1. -0.132
2. -0.0616
3. -0.24
4. -0.157
5. 0.0142
6. 0.0234
7. 0.0936
